Tested on: 388556-164-R-J1-PDC complex spheroid viability
Assay overview: Anticancer human tumor 388556-164-R-J1-PDC patient-derived colon adenocarcinoma cell line growth inhibition [RAS]
Condition notes: second compound 0.0949 µM; first compound 0.316 µM; stronger effect = lower value
Reported endpoint: viability, T/C (%)
Hi! Could you send only the number? It should be in %, unit omitted.

Compound | Measurement units | viability, T/C
CC(C)NCC(C(=O)N1CCN(c2ncnc3c2C(C)CC3O)CC1)c1ccc(Cl)cc1 (centres undefined) + CCn1c(-c2cc(N3CCN(C)CC3)cnc2C(C)OC)c2c3cc(ccc31)-c1csc(n1)CC(NC(=O)C1CC1C)C(=O)N1CCCC(N1)C(=O)OCC(C)(C)C2 | % | 38.9
Cc1nc(N2CCC3(CC2)COC(C)C3N)c(CO)nc1Sc1ccnc(N)c1Cl (centres undefined) + CCn1c(-c2cccnc2C(C)OC)c2c3cc(ccc31)N1CCOC(CC(NC(=O)C(C(C)C)N(C)C(=O)C3(F)CCN(C(=O)C#CC(C)(C)N(C)C)CC3)C(=O)N3CCCC(N3)C(=O)OCC(C)(C)C2)C1 | % | 75
CC(C)NCC(C(=O)N1CCN(c2ncnc3c2C(C)CC3O)CC1)c1ccc(Cl)cc1 (centres undefined) + CCn1c(-c2cccnc2C(C)OC)c2c3cc(ccc31)N1CCOC(CC(NC(=O)C(C(C)C)N(C)C(=O)C3(F)CCN(C(=O)C#CC(C)(C)N(C)C)CC3)C(=O)N3CCCC(N3)C(=O)OCC(C)(C)C2)C1 | % | 93.8

Then there is this compound:
INPUT: What does the data say about its viability, T/C? Entry: O=C(c1ccc(F)c(F)c1Nc1ccc(I)cc1F)N1CC(O)([C@@H]2CCCCN2)C1 + CCn1c(-c2cccnc2C(C)OC)c2c3cc(ccc31)N1CCOC(CC(NC(=O)C(C(C)C)N(C)C(=O)C3(F)CCN(C(=O)C#CC(C)(C)N(C)C)CC3)C(=O)N3CCCC(N3)C(=O)OCC(C)(C)C2)C1
OUTPUT: 41.5

###

Tested on: 388556-164-R-J1-PDC complex spheroid viability
Assay overview: Anticancer human tumor 388556-164-R-J1-PDC cell line growth inhibition [RAS];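 also: spheroids exposed to compound for 7 days before readout; 100% = DMSO vehicle control luminescence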
Condition notes: second compound 0.000949 µM; first compound 0.316 µM; stronger effect = lower value
Quick list: viability, T/C per entry.
Provide the reading as a plain figure in %.

These recorded examples may help you get a feel for the data.
Molecule | System tested | viability, T/C [%]
CC1(O)CCCC1n1c(=O)c(C(F)F)cc2cnc(NC3CCN(S(C)(=O)=O)CC3)nc21 (stereo not drawn) + CCn1c(-c2cc(N3CCN(C)CC3)cnc2C(C)OC)c2c3cc(ccc31)-c1csc(n1)CC(NC(=O)C1CC1C)C(=O)N1CCCC(N1)C(=O)OCC(C)(C)C2 | 388556-164-R-J1-PDC complex spheroid viability | 89.8
O=C(c1ccc(F)c(F)c1Nc1ccc(I)cc1F)N1CC(O)([C@@H]2CCCCN2)C1 + CCn1c(-c2cc(N3CCN(C)CC3)cnc2C(C)OC)c2c3cc(ccc31)-c1csc(n1)CC(NC(=O)C1CC1C)C(=O)N1CCCC(N1)C(=O)OCC(C)(C)C2 | 388556-164-R-J1-PDC complex spheroid viability | 31.8
NC1c2ccccc2OC12CCN(c1cnc3c(N4CCCc5ncccc54)n[nH]c3n1)CC2 (stereo not drawn) + CCn1c(-c2cccnc2C(C)OC)c2c3cc(ccc31)N1CCOC(CC(NC(=O)C(C(C)C)N(C)C(=O)C3(F)CCN(C(=O)C#CC(C)(C)N(C)C)CC3)C(=O)N3CCCC(N3)C(=O)OCC(C)(C)C2)C1 | 388556-164-R-J1-PDC complex spheroid viability | 46

INPUT: Requested read-out: viability, T/C. Entry: CC(C)NCC(C(=O)N1CCN(c2ncnc3c2C(C)CC3O)CC1)c1ccc(Cl)cc1 (stereo not drawn) + CCn1c(-c2cccnc2C(C)OC)c2c3cc(ccc31)N1CCOC(CC(NC(=O)C(C(C)C)N(C)C(=O)C3(F)CCN(C(=O)C#CC(C)(C)N(C)C)CC3)C(=O)N3CCCC(N3)C(=O)OCC(C)(C)C2)C1
OUTPUT: 99.6

INPUT: Give its viability, T/C value. Item: CC(=O)OC12COC1CC(O)C1(C)C(=O)C(O)C3=C(C)C(OC(=O)C(O)C(NC(=O)OC(C)(C)C)c4ccccc4)CC(O)(C(OC(=O)c4ccccc4)C21)C3(C)C (stereo not drawn) + CCn1c(-c2cc(N3CCN(C)CC3)cnc2C(C)OC)c2c3cc(ccc31)-c1csc(n1)CC(NC(=O)C1CC1C)C(=O)N1CCCC(N1)C(=O)OCC(C)(C)C2
OUTPUT: 63.7

INPUT: Look up viability, T/C: CCC(CC)c1cc(NC2CCC(N)C2)n2nccc2n1 (stereo not drawn) + CCn1c(-c2cccnc2C(C)OC)c2c3cc(ccc31)N1CCOC(CC(NC(=O)C(C(C)C)N(C)C(=O)C3(F)CCN(C(=O)C#CC(C)(C)N(C)C)CC3)C(=O)N3CCCC(N3)C(=O)OCC(C)(C)C2)C1
OUTPUT: 104

INPUT: Quick one: viability, T/C for O=C(c1ccc(F)c(F)c1Nc1ccc(I)cc1F)N1CC(O)([C@@H]2CCCCN2)C1 + CCn1c(-c2cccnc2C(C)OC)c2c3cc(ccc31)N1CCOC(CC(NC(=O)C(C(C)C)N(C)C(=O)C3(F)CCN(C(=O)C#CC(C)(C)N(C)C)CC3)C(=O)N3CCCC(N3)C(=O)OCC(C)(C)C2)C1 ?
OUTPUT: 43

INPUT: Reported viability, T/C for CCC(CC)c1cc(NC2CCC(N)C2)n2nccc2n1 (stereo not drawn) + CCn1c(-c2cc(N3CCN(C)CC3)cnc2C(C)OC)c2c3cc(ccc31)-c1csc(n1)CC(NC(=O)C1CC1C)C(=O)N1CCCC(N1)C(=O)OCC(C)(C)C2 : what is it?
OUTPUT: 93.3
